# system name: mouse ADAMTS7 (Mus musculus, UniProt Q68SA9, E373Q)
# Construct: Full-length mouse Adamts7 1-1857 (Uniprot Q68SA9, WT or E373Q catalytic mutant); expressed in transfected cells; host or cells: Human Coronary Artery Smooth Muscle Cells (HCA-SMC, Lonza), adenovirus 50 MOI
# Sequence (Q68SA9 221-1657 E373Q): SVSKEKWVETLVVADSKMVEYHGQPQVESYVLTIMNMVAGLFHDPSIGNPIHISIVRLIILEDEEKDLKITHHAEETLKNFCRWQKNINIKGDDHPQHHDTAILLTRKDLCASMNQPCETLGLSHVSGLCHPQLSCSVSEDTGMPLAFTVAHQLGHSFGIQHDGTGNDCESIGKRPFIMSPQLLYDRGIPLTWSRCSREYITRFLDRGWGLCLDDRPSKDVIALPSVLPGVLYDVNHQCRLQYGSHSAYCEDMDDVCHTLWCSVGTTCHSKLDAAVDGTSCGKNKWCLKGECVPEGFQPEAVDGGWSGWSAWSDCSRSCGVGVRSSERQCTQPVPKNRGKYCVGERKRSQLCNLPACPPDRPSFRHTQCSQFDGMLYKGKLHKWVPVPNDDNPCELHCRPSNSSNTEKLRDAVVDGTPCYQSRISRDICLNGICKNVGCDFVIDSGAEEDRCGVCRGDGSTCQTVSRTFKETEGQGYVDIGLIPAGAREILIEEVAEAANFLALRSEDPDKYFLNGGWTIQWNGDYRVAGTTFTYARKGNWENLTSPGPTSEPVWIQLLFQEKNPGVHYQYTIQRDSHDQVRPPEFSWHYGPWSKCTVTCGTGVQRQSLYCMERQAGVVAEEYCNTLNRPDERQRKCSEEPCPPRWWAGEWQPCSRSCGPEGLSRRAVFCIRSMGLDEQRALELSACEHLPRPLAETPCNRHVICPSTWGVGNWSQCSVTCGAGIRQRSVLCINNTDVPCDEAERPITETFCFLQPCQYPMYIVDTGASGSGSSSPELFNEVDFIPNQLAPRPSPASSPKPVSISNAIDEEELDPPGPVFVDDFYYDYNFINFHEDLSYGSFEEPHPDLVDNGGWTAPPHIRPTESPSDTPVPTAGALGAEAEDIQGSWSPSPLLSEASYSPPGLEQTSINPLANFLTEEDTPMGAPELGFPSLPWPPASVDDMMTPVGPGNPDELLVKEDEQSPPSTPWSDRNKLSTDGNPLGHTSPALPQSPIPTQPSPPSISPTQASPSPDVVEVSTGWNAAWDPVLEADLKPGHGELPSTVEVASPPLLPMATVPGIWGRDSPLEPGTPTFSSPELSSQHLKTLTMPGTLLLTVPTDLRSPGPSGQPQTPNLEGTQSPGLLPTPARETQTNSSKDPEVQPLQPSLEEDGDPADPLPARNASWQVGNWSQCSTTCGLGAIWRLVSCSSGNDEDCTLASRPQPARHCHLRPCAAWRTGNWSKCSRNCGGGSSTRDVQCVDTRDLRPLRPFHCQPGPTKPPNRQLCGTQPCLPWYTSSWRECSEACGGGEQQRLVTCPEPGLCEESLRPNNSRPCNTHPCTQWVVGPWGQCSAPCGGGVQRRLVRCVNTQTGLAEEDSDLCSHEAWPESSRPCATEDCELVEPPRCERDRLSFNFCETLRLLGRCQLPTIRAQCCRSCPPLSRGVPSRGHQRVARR
# protocol description: TMT10 TAILS N-terminomics, SMC2 experiment (process replicates, trypsin/AspN digest)
# Type: cell-based
# condition: log fold change, ADAMTS7 EQ over luciferase
result type: logFC.mEQ.over.Luc

# count of solved cases: 8
substance: SRGN_60 (LPGESNKIPR; listed as Homo sapiens)
logFC.mEQ.over.Luc: 0.32
--
substance: SRGN_50 (LEEKGPMFELLPGESNKIPR; listed as Homo sapiens)
logFC.mEQ.over.Luc: −0.07
--
substance: SERPINH1_27 (AAAPGTAEKLSPKAATLAER; listed as Homo sapiens)
logFC.mEQ.over.Luc: −0.69
--
substance: TMEM132A_52 (LLDAPEHFR; listed as Homo sapiens)
logFC.mEQ.over.Luc: −0.30
--
substance: TGFBI_24 (GPAKSPYQLVLQHSR; listed as Homo sapiens)
logFC.mEQ.over.Luc: 0.05
--
substance: SMOC1_35 (LISDRDPQCNLHCSR; listed as Homo sapiens)
logFC.mEQ.over.Luc: 0.14
--
substance: QSOX1_558 (VAAAPELAMGALELESR; listed as Homo sapiens)
logFC.mEQ.over.Luc: −0.19
--
substance: TGFBI_50 (AVQKVIGTNR; listed as Homo sapiens)
logFC.mEQ.over.Luc: 0.33

(1) THBS2_290 (LSENLKR; listed as Homo sapiens)
(2) STC2_239 (HGEAGHHLPEPSSR; listed as Homo sapiens)
# input Field: lower logFC.mEQ.over.Luc | Options: 1 / 2 Indicate your choice by writing its label.
# output 2
(2: −0.11, 1: 0.59)

Cited source for all entries: patent US20240368668A1
